Assignment: determine reported T/C for the given compounds.
System: MX-1 breast xenograft, nude mice, tumor weight T/C
ASSAY_PROTOCOL: NCI In Vivo Anticancer Drug Screen. Data for tumor model Human Mammary Carcinoma MX-1 Xenograft (intrarenal inoculation) in NU/NU Swiss (nude) mice
CONDITION_DESCRIPTION: endpoint: mean tumor weight change; dose: 400.0 mg/kg/injection; schedule: Q01DX010 (sc); vehicle: saline; higher = larger tumour
Records with an inconclusive call do not appear.

stdin: Endpoint output: T/C of N/C=N/O . Value?
stdout: 81 % of control

stdin: Endpoint output: T/C of CN1c2c(nc(N)[nH]c2=O)NCC1CCNc1ccc(C(=O)NC(CCC(=O)O)C(=O)O)cc1 (centres undefined) . Value?
stdout: 81 % of control

stdin: Endpoint output: T/C of O=C1OC(C(O)CO)C(O)=C1O (centres undefined) . Value?
stdout: 110 % of control

stdin: Endpoint output: T/C of Nc1n[nH]c(N)n1 . Value?
stdout: 94 % of control

stdin: Endpoint output: T/C of CCOC(=O)c1c[nH]c2oc(/C=N/N3CC(CN4CCOCC4)OC3=O)cc2c1=O (centres undefined) . Value?
stdout: 72 % of control

stdin: Endpoint output: T/C of NC(=O)NO . Value?
stdout: 49 % of control

stdin: Endpoint output: T/C of O=C1C=CN(C2OC(CO)C(O)C2O)C(=O)C1 (centres undefined) . Value?
stdout: 75 % of control

stdin: Endpoint output: T/C of Cc1cc2nc3[nH]c4ccccc4c3nc2cc1C . Value?
stdout: 63 % of control

stdin: Endpoint output: T/C of NCCc1ccc(O)c(O)c1 . Value?
stdout: 80 % of control

stdin: Endpoint output: T/C of CCCC(=O)Nc1ncnc2c1ncn2C1OC2COP(=O)(O)OC2C1OC(=O)CCC (centres undefined) . Value?
stdout: 124 % of control

stdin: Endpoint output: T/C of CNNCc1ccc(C(=O)NC(C)C)cc1 . Value?
stdout: 7 % of control

stdin: Endpoint output: T/C of Cc1ccccc1N(CC1CO1)CC1CO1 (centres undefined) . Value?
stdout: 56 % of control

stdin: Endpoint output: T/C of O=c1cnn(C2OC(CO)C(O)C2O)c(=O)[nH]1 (centres undefined) . Value?
stdout: 77 % of control

stdin: Endpoint output: T/C of CC(=O)NCCCCCCNC(C)=O . Value?
stdout: 84 % of control

* * *

Test system: MX-1 breast xenograft, nude mice, tumor weight T/C
ASSAY_PROTOCOL: NCI In Vivo Anticancer Drug Screen. Data for tumor model Human Mammary Carcinoma MX-1 Xenograft (intrarenal inoculation) in NU/NU Swiss (nude) mice
CONDITION_DESCRIPTION: endpoint: mean tumor weight change; dose: 2400.0 mg/kg/injection; schedule: Q04DX003 (sc); vehicle: Klucel (hydroxypropylcellulose) (HPC); higher = larger tumour
Protocol: The antitumor activity of compounds was measured in mice bearing transplantable tumors. Survival or tumor size were measured and the results are expressed as the measurement made in the treated group (T) divided by the measurement made in the vehicle treated control group (C). The tumor model used in this assay is Human Mammary Carcinoma MX-1 Xenograft (intrarenal inoculation) in NU/NU Swiss (nude) mice
Records with an inconclusive call do not appear.
Assignment: determine reported T/C for the given molecules.

stdin: Endpoint output: T/C of [I][Hg][CH2]C1OCCOC1[CH2][Hg][I] (stereo not drawn) . Value?
stdout: 98 % of control

stdin: Endpoint output: T/C of S=C(Nc1ccc(Cl)c(Cl)c1)N1c2ccccc2-n2cccc2C1c1cccnc1 (stereo not drawn) . Value?
stdout: 108 % of control

stdin: Endpoint output: T/C of C=C[Si]12OCCN(CCO1)CCO2 . Value?
stdout: 89 % of control

stdin: Endpoint output: T/C of Cc1cc(Nc2ccc3c(c2)OCO3)c2cc3c(cc2n1)OCO3 . Value?
stdout: 92 % of control

stdin: Endpoint output: T/C of C[Si](C)(C)OSc1ccccc1[N+](=O)[O-] . Value?
stdout: 107 % of control

stdin: Endpoint output: T/C of CSc1ncc2ncn(C3OC(CO)C(O)C3O)c2n1 (stereo not drawn) . Value?
stdout: 68 % of control

stdin: Endpoint output: T/C of CCCCCCCCCCCCCCC/C([O-])=N/[N+](C)(C)CC(C)O (stereo not drawn) . Value?
stdout: 63 % of control

stdin: Endpoint output: T/C of Cc1cc(C)c(-c2cc(O)c(C)cc2O)c(C)c1 . Value?
stdout: 420 % of control

stdin: Endpoint output: T/C of Cc1ccc(C2NC(=S)N3C(c4ccc(C)cc4)NC(=S)N23)cc1 (stereo not drawn) . Value?
stdout: 89 % of control

stdin: Endpoint output: T/C of CCCCCC(=O)O[C@]1(C(C)=O)CC[C@H]2[C@@H]3CCC4=CC(=O)CC[C@]4(C)[C@H]3CC[C@@]21C . Value?
stdout: 85 % of control

stdin: Endpoint output: T/C of O=Cc1ccc(C=O)c(Cl)c1 . Value?
stdout: 120 % of control

stdin: Endpoint output: T/C of Cc1c(-c2ccc(C3CCCCC3)cc2)nc2ccc(F)cc2c1C(=O)O . Value?
stdout: 96 % of control

stdin: Endpoint output: T/C of CN(C)C(=O)SC1=C(c2c(Cl)cccc2Cl)C(=O)c2ccccc21 . Value?
stdout: 67 % of control

stdin: Endpoint output: T/C of Cc1ccc(S(=O)(=O)OCOS(=O)(=O)c2ccc(C)cc2)cc1 . Value?
stdout: 63 % of control

stdin: Endpoint output: T/C of CC(C)(C)C1CCCCC1 . Value?
stdout: 65 % of control

stdin: Endpoint output: T/C of O=NN(CCCl)C(=O)Oc1cc(Cl)c(Cl)cc1Cl . Value?
stdout: 33 % of control

stdin: Endpoint output: T/C of CCOC(=O)CNC(=O)Sc1ccc(C(C)(C)C)cc1 . Value?
stdout: 77 % of control

stdin: Endpoint output: T/C of CN(C1=NS(=O)(=O)N=C(N(C)c2ccccc2)O1)c1ccccc1 . Value?
stdout: 106 % of control

stdin: Endpoint output: T/C of CCc1c(CC(=O)O)c2cc(C)ccc2n1Cc1ccc(Cl)cc1 . Value?
stdout: 49 % of control

stdin: Endpoint output: T/C of COc1cc(C)c(C2NC(=O)c3ccccc3N2)cc1C (stereo not drawn) . Value?
stdout: 90 % of control

stdin: Endpoint output: T/C of Oc1c(Cl)cc(C(c2cc(Cl)c(O)c(Cl)c2)C(c2cc(Cl)c(O)c(Cl)c2)c2cc(Cl)c(O)c(Cl)c2)cc1Cl . Value?
stdout: 88 % of control

stdin: Endpoint output: T/C of OCC1OC(n2cnc3c(NO)ncnc32)C(O)C1O (stereo not drawn) . Value?
stdout: 82 % of control

stdin: Endpoint output: T/C of Cc1ccc(C(=O)[O][Hg][CH2]C2COC([CH2][Hg][O]C(=O)c3ccc(C)cc3)CO2)cc1 (stereo not drawn) . Value?
stdout: 102 % of control
